targetUnderTest: Nav 1.7 (Homo sapiens (Human), UniProt Q15858)
Sequence (Q15858 whole entry): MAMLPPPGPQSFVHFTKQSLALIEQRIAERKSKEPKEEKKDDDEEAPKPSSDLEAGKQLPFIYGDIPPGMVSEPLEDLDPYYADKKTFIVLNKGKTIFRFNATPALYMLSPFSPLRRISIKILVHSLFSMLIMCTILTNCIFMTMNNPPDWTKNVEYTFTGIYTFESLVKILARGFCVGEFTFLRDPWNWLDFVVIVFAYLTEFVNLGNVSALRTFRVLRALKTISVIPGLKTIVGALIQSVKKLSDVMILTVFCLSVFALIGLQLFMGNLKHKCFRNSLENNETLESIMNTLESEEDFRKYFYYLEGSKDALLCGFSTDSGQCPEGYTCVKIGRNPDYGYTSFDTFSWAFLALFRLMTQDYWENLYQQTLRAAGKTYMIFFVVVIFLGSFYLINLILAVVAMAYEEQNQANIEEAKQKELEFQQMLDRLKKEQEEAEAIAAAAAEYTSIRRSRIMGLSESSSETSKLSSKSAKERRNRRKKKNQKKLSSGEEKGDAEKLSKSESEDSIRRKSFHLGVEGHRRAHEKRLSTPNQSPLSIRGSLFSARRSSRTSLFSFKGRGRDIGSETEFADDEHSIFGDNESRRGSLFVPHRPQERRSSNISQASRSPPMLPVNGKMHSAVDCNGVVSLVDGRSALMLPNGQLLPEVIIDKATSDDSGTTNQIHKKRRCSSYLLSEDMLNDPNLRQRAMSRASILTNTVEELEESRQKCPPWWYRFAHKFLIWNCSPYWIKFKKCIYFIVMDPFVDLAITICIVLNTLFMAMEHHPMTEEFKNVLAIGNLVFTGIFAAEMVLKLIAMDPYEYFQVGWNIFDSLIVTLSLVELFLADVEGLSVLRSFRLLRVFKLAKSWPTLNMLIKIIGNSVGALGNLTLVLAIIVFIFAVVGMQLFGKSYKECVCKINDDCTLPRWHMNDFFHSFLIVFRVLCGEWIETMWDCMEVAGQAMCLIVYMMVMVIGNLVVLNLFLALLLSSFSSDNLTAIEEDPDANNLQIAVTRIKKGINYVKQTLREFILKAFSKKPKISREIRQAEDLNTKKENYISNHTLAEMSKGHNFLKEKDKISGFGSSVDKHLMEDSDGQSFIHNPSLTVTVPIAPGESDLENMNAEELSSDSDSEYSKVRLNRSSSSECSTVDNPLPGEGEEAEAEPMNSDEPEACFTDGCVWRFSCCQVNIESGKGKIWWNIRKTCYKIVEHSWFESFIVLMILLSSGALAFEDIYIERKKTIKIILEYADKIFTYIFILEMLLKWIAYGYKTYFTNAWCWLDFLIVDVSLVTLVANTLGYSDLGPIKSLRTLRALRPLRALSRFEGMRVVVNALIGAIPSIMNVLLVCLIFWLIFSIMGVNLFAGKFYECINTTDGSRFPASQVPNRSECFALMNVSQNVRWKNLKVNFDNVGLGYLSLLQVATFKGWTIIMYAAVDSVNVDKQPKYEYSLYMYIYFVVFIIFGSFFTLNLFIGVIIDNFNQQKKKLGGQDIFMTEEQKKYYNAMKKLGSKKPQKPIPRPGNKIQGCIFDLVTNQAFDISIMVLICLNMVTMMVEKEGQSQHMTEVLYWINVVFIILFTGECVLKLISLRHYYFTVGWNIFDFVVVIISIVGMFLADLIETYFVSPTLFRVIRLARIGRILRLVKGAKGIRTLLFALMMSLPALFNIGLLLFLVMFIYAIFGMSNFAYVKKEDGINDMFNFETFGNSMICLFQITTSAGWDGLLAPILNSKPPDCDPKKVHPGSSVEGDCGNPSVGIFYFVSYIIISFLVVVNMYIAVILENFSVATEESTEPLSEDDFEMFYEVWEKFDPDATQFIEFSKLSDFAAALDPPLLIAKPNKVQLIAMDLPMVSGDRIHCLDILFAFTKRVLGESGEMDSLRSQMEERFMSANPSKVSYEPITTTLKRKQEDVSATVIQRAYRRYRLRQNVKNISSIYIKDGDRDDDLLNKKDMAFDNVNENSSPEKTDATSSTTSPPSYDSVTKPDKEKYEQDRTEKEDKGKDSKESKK
experimentDescription: Nav 1.7 in vitro PX assay (PatchXpress whole cell voltage clamp)
Assay type: cell-based
studyConditions: 293 cells, human Nav1.7, partially inactivated state; read-out: Nav1.7 PX IC50 IP
pIC50: −log10 of the molar value.
attributeMeasured: pIC50

Example results:
COc1cc(C(F)(F)F)ccc1-c1nccc2cc(S(=O)(=O)Nc3nncs3)ccc12: 6.04
O=S(=O)(Nc1ncns1)c1ccc2c(N3CCCC3c3ccccc3)nccc2c1 (centres unmarked): 6.37
COc1cc(-c2cccc(F)c2)ccc1-c1ncnc2cc(S(=O)(=O)Nc3nncs3)ccc12: 6.59
O=C(c1ccccc1)N1CCCC1c1cccc2cc(S(=O)(=O)Nc3nccs3)ccc12 (centres unmarked): 4.93
COc1ccccc1-c1c(C#N)cnc2cc(S(=O)(=O)Nc3nccs3)ccc12: 6.18

1 = COc1cc(C(F)(F)F)ccc1-c1ncc(C#N)c2cc(S(=O)(=O)Nc3nccs3)ccc12
2 = Cc1cc(Cl)ccc1-c1nccc2cc(S(=O)(=O)Nc3ccncn3)ccc12
Request: // returns 1 or 2 , whichever has the lower pIC50 Indicate which entry you chose by stating its label.
Result: 2
(2: 5.73, 1: 6.41)

a = COc1cc(C#N)ccc1-c1ncc(F)c2cc(S(=O)(=O)Nc3nccs3)ccc12
b = COc1cc(-c2ccc(C)o2)ccc1-c1nccc2cc(S(=O)(=O)Nc3ccncn3)ccc12
c = COc1cc(C#N)ccc1-c1nccc2cc(S(=O)(=O)Nc3nccs3)ccc12
d = COCc1cc(C(F)(F)F)ccc1-c1nccc2cc(S(=O)(=O)Nc3nccs3)ccc12
Request: # desc sort on pIC50 across 4 molecules Note for the reader: the ranking is given by listing the labels in the order requested.
Result: a, c, d, b

P = Cc1cc(C#N)ccc1-c1nccc2cc(S(=O)(=O)Nc3ncns3)ccc12
Q = O=S(=O)(Nc1ccncn1)c1ccc2c(-c3ccc(C(F)(F)F)cc3C3(F)CNC3)cccc2c1
Request: // returns P or Q , whichever has the lower pIC50 Indicate which entry you chose by stating its label.
Result: P
(P: 5.62, Q: 6.19)

* * *

targetUnderTest: Nav 1.7 (Homo sapiens (Human))
experimentDescription: Nav 1.7 IWQ in vitro assay (IonWorks Quattro population patch-clamp)
Assay type: cell-based
studyConditions: 293 cells stably transfected with Nav 1.7; second part of table; read-out: Nav1.7 IWQ IC50 IP
Procedure: Nav 1.7 or Nav 1.5 IWQ In Vitro Assay 293 Cells stably transfected with either Nav 1.7 or Nav 1.5 were recorded in population patch-clamp mode with the IonWorks® Quattro automated electrophysiology system in accordance with the manufacturer's specifications (Molecular Devices, LLC, Sunnyvale, Calif.). Sodium channel currents were measured in response to a train of depolarizations that induced successively greater inactivation. […]
attributeMeasured: IC50 (nM)

Example results:
CN1CCN(c2cc(C(F)(F)F)ccc2-c2cccc3cc(S(=O)(=O)Nc4nccs4)ccc23)CC1 [Example 84, 2,2,2-TRIFLUOROACETATE]: 110
O=S(=O)(Nc1ccncn1)c1ccc2c(-c3ccc(C(F)(F)F)cc3C3=CCNC3)cccc2c1: 20

1 = COc1ncc(Cl)cc1-c1nccc2cc(S(=O)(=O)Nc3nccs3)ccc12
2 = CCOc1ccccc1-c1nccc2cc(S(=O)(=O)Nc3ccncn3)ccc12
Request: For the two items 1 and 2 , which reports the higher IC50 value? Indicate which entry you chose by stating its label.
Result: 2
(2: 430 nM, 1: 30 nM)

1 = COc1cc(F)ccc1-c1ncc(F)c2cc(S(=O)(=O)Nc3nccs3)ccc12
2 = COc1ccc(OC(F)(F)F)cc1-c1nccc2cc(S(=O)(=O)Nc3ccncn3)ccc12
Request: // returns 1 or 2 , whichever has the lower IC50 Indicate which entry you chose by stating its label.
Result: 1
(1: 10 nM, 2: 30 nM)

* * *

targetUnderTest: UniProtKB Q14524
Sequence (Q14524 whole entry): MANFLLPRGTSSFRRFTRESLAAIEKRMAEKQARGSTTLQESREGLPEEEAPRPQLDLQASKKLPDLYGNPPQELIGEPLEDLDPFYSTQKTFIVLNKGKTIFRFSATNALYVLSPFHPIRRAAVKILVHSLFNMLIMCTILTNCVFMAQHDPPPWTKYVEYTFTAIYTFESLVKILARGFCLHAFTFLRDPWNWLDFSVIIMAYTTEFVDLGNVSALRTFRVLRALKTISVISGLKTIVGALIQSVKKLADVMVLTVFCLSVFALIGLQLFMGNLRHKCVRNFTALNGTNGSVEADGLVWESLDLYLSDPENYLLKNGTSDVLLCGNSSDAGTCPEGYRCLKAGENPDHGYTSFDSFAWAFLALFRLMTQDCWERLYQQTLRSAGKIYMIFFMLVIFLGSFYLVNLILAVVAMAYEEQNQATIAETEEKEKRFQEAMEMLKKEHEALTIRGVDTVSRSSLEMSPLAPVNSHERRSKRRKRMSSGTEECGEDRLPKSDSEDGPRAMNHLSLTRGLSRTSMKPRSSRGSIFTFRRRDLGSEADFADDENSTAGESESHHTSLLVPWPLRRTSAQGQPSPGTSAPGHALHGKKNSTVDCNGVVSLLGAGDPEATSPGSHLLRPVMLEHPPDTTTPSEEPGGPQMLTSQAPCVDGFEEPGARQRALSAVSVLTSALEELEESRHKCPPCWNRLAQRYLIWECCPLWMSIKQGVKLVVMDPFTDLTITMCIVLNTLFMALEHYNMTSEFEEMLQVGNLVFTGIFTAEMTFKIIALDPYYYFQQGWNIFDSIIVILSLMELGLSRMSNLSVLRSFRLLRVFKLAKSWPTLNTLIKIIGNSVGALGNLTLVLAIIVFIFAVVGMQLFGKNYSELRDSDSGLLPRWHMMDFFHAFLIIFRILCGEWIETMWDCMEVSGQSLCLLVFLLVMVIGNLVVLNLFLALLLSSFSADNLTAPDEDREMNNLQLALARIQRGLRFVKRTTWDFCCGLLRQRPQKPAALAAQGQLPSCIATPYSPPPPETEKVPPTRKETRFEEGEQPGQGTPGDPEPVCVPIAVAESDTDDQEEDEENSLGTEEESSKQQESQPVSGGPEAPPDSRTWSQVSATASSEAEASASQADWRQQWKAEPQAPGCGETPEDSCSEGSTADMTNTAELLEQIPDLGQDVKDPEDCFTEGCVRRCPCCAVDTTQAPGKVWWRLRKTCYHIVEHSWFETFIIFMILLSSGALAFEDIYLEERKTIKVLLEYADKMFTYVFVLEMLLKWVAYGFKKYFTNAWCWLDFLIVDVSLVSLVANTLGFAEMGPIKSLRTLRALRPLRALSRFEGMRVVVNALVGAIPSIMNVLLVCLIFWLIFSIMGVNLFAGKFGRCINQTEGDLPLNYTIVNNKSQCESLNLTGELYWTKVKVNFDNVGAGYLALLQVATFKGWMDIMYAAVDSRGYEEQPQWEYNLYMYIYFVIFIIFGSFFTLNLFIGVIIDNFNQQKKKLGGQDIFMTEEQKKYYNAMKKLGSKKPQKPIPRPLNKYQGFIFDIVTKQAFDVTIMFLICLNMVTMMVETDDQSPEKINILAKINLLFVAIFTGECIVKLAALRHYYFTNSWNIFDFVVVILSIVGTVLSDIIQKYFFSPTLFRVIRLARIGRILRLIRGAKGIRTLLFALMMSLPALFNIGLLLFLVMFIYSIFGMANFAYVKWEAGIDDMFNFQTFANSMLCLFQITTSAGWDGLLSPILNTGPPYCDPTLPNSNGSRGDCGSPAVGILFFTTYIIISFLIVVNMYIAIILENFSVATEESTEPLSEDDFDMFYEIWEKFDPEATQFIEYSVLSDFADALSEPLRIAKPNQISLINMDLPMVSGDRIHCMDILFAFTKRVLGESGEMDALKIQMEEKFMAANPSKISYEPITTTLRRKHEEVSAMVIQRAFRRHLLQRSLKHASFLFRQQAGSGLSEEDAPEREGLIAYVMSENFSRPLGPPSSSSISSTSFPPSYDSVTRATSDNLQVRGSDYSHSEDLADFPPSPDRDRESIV
experimentDescription: Nav 1.5 in vitro PX assay (PatchXpress whole cell voltage clamp)
Format: cell-based
Entries and their measured IC50 follow.

COc1ccc(Cl)cc1-c1n[nH]c(=O)c2cc(S(=O)(=O)Nc3nccs3)ccc12: > 30 µM

Pending compound:
Request: What value of IC50 has been reported for the following compound? `O=S(=O)(Nc1ncns1)c1ccc2c(-c3ccc(Cl)cc3C3=CCNCC3)cccc2c1`
Result: > 30 µM

* * *

targetUnderTest: Nav 1.7 (Homo sapiens (Human), UniProt Q15858)
experimentDescription: Nav 1.7 IWQ in vitro assay (IonWorks Quattro population patch-clamp)
Type: cell-based
studyConditions: 293 cells stably transfected with Nav 1.7; first part of table; read-out: Nav 1.7 IWQ IC50
attributeMeasured: IC50 (nM)

Example results:
O=S(=O)(Nc1ncns1)c1ccc2c(-c3ccc(F)cc3Cl)cccc2c1: 170
O=S(=O)(Nc1ncns1)c1ccc2c(-c3ccc(C(F)(F)F)cc3-c3ccncc3)nccc2c1: 70

I = COc1cc(Cl)ccc1-c1cccc2cc(S(=O)(=O)Nc3ccn(CCN(C)C)n3)ccc12
II = O=S(=O)(Nc1ncns1)c1ccc2c(-c3ccc(C(F)(F)F)cc3Cl)nccc2c1
Request: // returns I or II , whichever has the lower IC50 Indicate which entry you chose by stating its label.
Result: II

* * *

targetUnderTest: Nav 1.7 (Homo sapiens (Human), UniProt Q15858)
experimentDescription: Nav 1.7 in vitro PX assay (PatchXpress whole cell voltage clamp)
Assay type: cell-based
studyConditions: 293 cells, human Nav1.7, partially inactivated state; read-out: Nav1.7 PX IC50 IP
attributeMeasured: IC50 (nM)

COc1cc(Cl)ccc1-c1nccc2cc(S(=O)(=O)Nc3ccncn3)ccc12 [Example 160]: 1330

1 = COc1cc(F)ccc1-c1nncc2cc(S(=O)(=O)Nc3nccs3)ccc12 [Example 250]
2 = COc1cc(-c2ccc(Cl)c(F)c2)ccc1-c1nccc2cc(S(=O)(=O)Nc3ccncn3)ccc12 [Example 492]
Request: For the two items 1 and 2 , which reports the higher IC50 value? Indicate which entry you chose by stating its label.
Result: 1

* * *

targetUnderTest: Nav 1.7 (Homo sapiens (Human), UniProt Q15858)
experimentDescription: Nav 1.7 in vitro PX assay (PatchXpress whole cell voltage clamp)
Assay type: cell-based
studyConditions: 293 cells, human Nav1.7, partially inactivated state; read-out: Nav1.7 PX IC50 IP
pIC50: −log10 of the molar value.
attributeMeasured: pIC50

Example results:
CS(=O)(=O)c1cc(C(F)(F)F)ccc1-c1cccc2cc(S(=O)(=O)Nc3ccncn3)ccc12: 5.54
COc1cc(C(F)(F)F)ccc1-c1cccc2cc(S(=O)(=O)Nc3ncc(F)s3)ccc12: 5.48

1 = COc1cc(C(F)(F)F)ccc1-c1nccc2cc(S(=O)(=O)Nc3ncco3)ccc12
2 = COc1cc(C(F)(F)F)ccc1-c1ncnc2cc(S(=O)(=O)Nc3nccs3)ccc12
Request: For the two items 1 and 2 , which reports the higher pIC50 value? Indicate which entry you chose by stating its label.
Result: 2

* * *

targetUnderTest: Nav 1.7 (Homo sapiens (Human), UniProt Q15858)
experimentDescription: Nav 1.7 in vitro PX assay (PatchXpress whole cell voltage clamp)
Type: cell-based
studyConditions: 293 cells, human Nav1.7, partially inactivated state; read-out: Nav1.7 PX IC50 IP
pIC50: −log10 of the molar value.
attributeMeasured: pIC50

Example results:
COc1cc(C#N)ccc1-c1nc(C)nc2cc(S(=O)(=O)Nc3nccs3)ccc12 [Example 517]: 5.89
N#CCn1c(-c2cccc3cc(S(=O)(=O)Nc4ccncn4)ccc23)cc2cc(F)ccc21 [Example 105]: 5.11
O=S(=O)(Nc1nccs1)c1ccc2c(N3CCC(c4ccccc4)C3)nccc2c1 (stereo not drawn) [Example 243]: 4.97
Cc1cc(Cl)ccc1-c1nccc2cc(S(=O)(=O)Nc3nccs3)ccc12 [Example 209, 2,2,2-TRIFLUOROACETATE]: 6.41
COc1cc2ccccc2cc1-c1nccc2cc(S(=O)(=O)Nc3ccncn3)ccc12 [Example 155]: 5.95

P = COc1cc(-c2nccs2)ccc1-c1nccc2cc(S(=O)(=O)Nc3ccncn3)ccc12 [Example 456]
Q = COc1cc(Cl)ccc1-c1nncc2cc(S(=O)(=O)Nc3nccs3)ccc12 [Example 249]
Request: // returns P or Q , whichever has the lower pIC50 Indicate which entry you chose by stating its label.
Result: P

a = COc1cc(C(F)(F)F)ccc1-c1ccnc2cc(S(=O)(=O)Nc3ccncn3)ccc12 [Example 279]
b = COc1cc(F)c(C)cc1-c1nccc2cc(S(=O)(=O)Nc3ccncn3)ccc12 [Example 154]
Request: For the two items a and b , which reports the higher pIC50 value? Indicate which entry you chose by stating its label.
Result: a
(a: 6.24, b: 5.66)

I = COc1cc(CC(C)(C)C)ccc1-c1nccc2cc(S(=O)(=O)Nc3ccncn3)ccc12 [Example 360]
II = COc1ccc(C2=CCOCC2)cc1-c1nccc2cc(S(=O)(=O)Nc3ccncn3)ccc12 [Example 353]
III = COc1cc(Cl)ccc1-c1nccc2cc(S(=O)(=O)Nc3ncns3)ccc12 [Example 368]
IV = COc1cc(C(F)(F)F)ccc1-c1nccc2cc(S(=O)(=O)Nc3ncc(C#N)s3)ccc12 [Example 197]
V = COc1ccc(-c2cccc(F)c2)cc1-c1nccc2cc(S(=O)(=O)Nc3ncns3)ccc12 [Example 347]
Request: In this exercise, place the 5 compounds in ascending sequence of their recorded pIC50. Note for the reader: the ranking is given by listing the labels in the order requested.
Result: II, IV, I, III, V

A = COc1cc(C(F)(F)F)ccc1-c1nccc2cc(S(=O)(=O)Nc3cscn3)ccc12 [Example 497]
B = COc1cc(Cl)c(C#N)cc1-c1nccc2cc(S(=O)(=O)Nc3nncs3)ccc12 [Example 337]
Request: For the two items A and B , which reports the higher pIC50 value? Indicate which entry you chose by stating its label.
Result: B
(B: 6.41, A: 6.10)

1 = COc1ccccc1-c1ncnc2cc(S(=O)(=O)Nc3nccs3)ccc12 [Example 272]
2 = N#CCOc1cc(Cl)ccc1-c1nccc2cc(S(=O)(=O)Nc3nccs3)ccc12 [Example 373, 2,2,2-TRIFLUOROACETATE]
3 = COc1ncc(F)cc1-c1nccc2cc(S(=O)(=O)Nc3nccs3)ccc12 [Example 410]
Request: In this exercise, place the 3 compounds in ascending sequence of their recorded pIC50. Note for the reader: the ranking is given by listing the labels in the order requested.
Result: 3, 1, 2
(3: 5.78, 1: 6.34, 2: 6.82)

P = COc1ccc(C(F)(F)F)cc1-c1nccc2cc(S(=O)(=O)Nc3ccncn3)ccc12 [Example 139]
Q = COc1cc(-c2cc(F)cc(F)c2)c(C#N)cc1-c1nccc2cc(S(=O)(=O)Nc3ccon3)ccc12 [Example 343]
Request: For the two items P and Q , which reports the higher pIC50 value? Indicate which entry you chose by stating its label.
Result: Q
(Q: 6.84, P: 6.38)

A = COc1cc(-c2cccc(F)c2)ccc1-c1nccc2cc(S(=O)(=O)Nc3ncns3)ccc12 [Example 369]
B = COc1ccccc1-c1ncc(F)c2cc(S(=O)(=O)Nc3ncns3)ccc12 [Example 393]
C = CC1CCCN1c1cccc2cc(S(=O)(=O)Nc3ncns3)ccc12 (stereo not drawn) [Example 91]
D = COc1cc(-c2cc(F)cc(F)c2)ccc1-c1nccc2cc(S(=O)(=O)Nc3ccncn3)ccc12 [Example 449]
E = COc1ccccc1-c1nccc2cc(S(=O)(=O)Nc3ccncn3)ccc12 [Example 140]
Request: # desc sort on pIC50 across 5 compounds Note for the reader: the ranking is given by listing the labels in the order requested.
Result: D, A, B, C, E

P = COc1ccc(-c2cccc(C(F)(F)F)c2)cc1-c1nccc2cc(S(=O)(=O)Nc3ccncn3)ccc12 [Example 349]
Q = COc1cc(-c2cccc(F)c2)c(Cl)cc1-c1nccc2cc(S(=O)(=O)Nc3ccncn3)ccc12 [Example 333]
Request: // returns P or Q , whichever has the lower pIC50 Indicate which entry you chose by stating its label.
Result: Q

Data provenance: patent US9012443B2
